Tested on: HOP-62 complex spheroids with HUVEC/MSC, viability
Assay: Anticancer human tumor HOP-62 cell line growth inhibition [RAS];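 also: spheroids exposed to agents for seven days before readout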
Conditions: second compound 0.0949 µM; first compound 0.01 µM; active compounds read low
One threshold, 50%, splits the recorded viability, T/C values: lower ones are True, equal or higher ones are False.

Use these answered entries as a reference point.
Compound	Class Label
C=CC(=O)N1CCN(c2nc(OCC3CCCN3C)nc3c(F)c(-c4nc(N)cc(C)c4C(F)(F)F)c(Cl)cc23)C(C)C1 (stereo not drawn) + CCn1c(-c2cccnc2C(C)OC)c2c3cc(ccc31)N1CCOC(CC(NC(=O)C(C(C)C)N(C)C(=O)C3(F)CCN(C(=O)C#CC(C)(C)N(C)C)CC3)C(=O)N3CCCC(N3)C(=O)OCC(C)(C)C2)C1	False
O=C(c1ccc(F)c(F)c1Nc1ccc(I)cc1F)N1CC(O)([C@@H]2CCCCN2)C1 + CCn1c(-c2cc(N3CCN(C)CC3)cnc2C(C)OC)c2c3cc(ccc31)-c1csc(n1)CC(NC(=O)C1CC1C)C(=O)N1CCCC(N1)C(=O)OCC(C)(C)C2	True
CCN1CCN(Cc2ccc(Nc3ncc(F)c(-c4cc(F)c5nc(C)n(C(C)C)c5c4)n3)nc2)CC1 + CCn1c(-c2cc(N3CCN(C)CC3)cnc2C(C)OC)c2c3cc(ccc31)-c1csc(n1)CC(NC(=O)C1CC1C)C(=O)N1CCCC(N1)C(=O)OCC(C)(C)C2	True
CC(C)n1nc(-c2ccc3oc(N)nc3c2)c2c(N)ncnc21 + CCn1c(-c2cccnc2C(C)OC)c2c3cc(ccc31)N1CCOC(CC(NC(=O)C(C(C)C)N(C)C(=O)C3(F)CCN(C(=O)C#CC(C)(C)N(C)C)CC3)C(=O)N3CCCC(N3)C(=O)OCC(C)(C)C2)C1	False
C=CC(=O)N1CCN(c2nc(OCC3CCCN3C)nc3c(F)c(-c4nc(N)cc(C)c4C(F)(F)F)c(Cl)cc23)C(C)C1 (stereo not drawn) + CCn1c(-c2cc(N3CCN(C)CC3)cnc2C(C)OC)c2c3cc(ccc31)-c1csc(n1)CC(NC(=O)C1CC1C)C(=O)N1CCCC(N1)C(=O)OCC(C)(C)C2	True

Quick check: viability, T/C of CCN1CCN(Cc2ccc(Nc3ncc(F)c(-c4cc(F)c5nc(C)n(C(C)C)c5c4)n3)nc2)CC1 + CCn1c(-c2cccnc2C(C)OC)c2c3cc(ccc31)N1CCOC(CC(NC(=O)C(C(C)C)N(C)C(=O)C3(F)CCN(C(=O)C#CC(C)(C)N(C)C)CC3)C(=O)N3CCCC(N3)C(=O)OCC(C)(C)C2)C1 under 50%?
False

Strictly below 50%: is that where viability, T/C of C=CC(=O)Nc1cc(Nc2nccc(-c3cn(C)c4ccccc34)n2)c(OC)cc1N(C)CCN(C)C + CCn1c(-c2cccnc2C(C)OC)c2c3cc(ccc31)N1CCOC(CC(NC(=O)C(C(C)C)N(C)C(=O)C3(F)CCN(C(=O)C#CC(C)(C)N(C)C)CC3)C(=O)N3CCCC(N3)C(=O)OCC(C)(C)C2)C1 sits?
False

====

Tested on: HOP-62 complex spheroids with HUVEC/MSC, viability
Assay: Anticancer human tumor HOP-62 cell line growth inhibition [RAS]; active = viability on the fitted dose curve at most 10% of control; inactive = the rest;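 also: spheroids exposed to agents for seven days before readout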
Settings: second compound 0.03 µM; first compound 10 µM
Could you please pick one outcome from this set? active, inactive

These solved cases illustrate the format of a correct answer.
Molecule	Class Label
NC1c2ccccc2OC12CCN(c1cnc3c(N4CCCc5ncccc54)n[nH]c3n1)CC2 (stereo unspecified) + CCn1c(-c2cc(N3CCN(C)CC3)cnc2C(C)OC)c2c3cc(ccc31)-c1csc(n1)CC(NC(=O)C1CC1C)C(=O)N1CCCC(N1)C(=O)OCC(C)(C)C2	inactive
CC1(O)CCCC1n1c(=O)c(C(F)F)cc2cnc(NC3CCN(S(C)(=O)=O)CC3)nc21 (stereo unspecified) + CCn1c(-c2cccnc2C(C)OC)c2c3cc(ccc31)N1CCOC(CC(NC(=O)C(C(C)C)N(C)C(=O)C3(F)CCN(C(=O)C#CC(C)(C)N(C)C)CC3)C(=O)N3CCCC(N3)C(=O)OCC(C)(C)C2)C1	active
CCC(CC)c1cc(NC2CCC(N)C2)n2nccc2n1 (stereo unspecified) + CCn1c(-c2cccnc2C(C)OC)c2c3cc(ccc31)N1CCOC(CC(NC(=O)C(C(C)C)N(C)C(=O)C3(F)CCN(C(=O)C#CC(C)(C)N(C)C)CC3)C(=O)N3CCCC(N3)C(=O)OCC(C)(C)C2)C1	active
C[C@@H](NC(=O)c1ncnc(N)c1Cl)c1ncc(C(=O)Nc2cc(C(F)(F)F)c(Cl)cn2)s1 + CCn1c(-c2cc(N3CCN(C)CC3)cnc2C(C)OC)c2c3cc(ccc31)-c1csc(n1)CC(NC(=O)C1CC1C)C(=O)N1CCCC(N1)C(=O)OCC(C)(C)C2	inactive
CCC(CC)c1cc(NC2CCC(N)C2)n2nccc2n1 (stereo unspecified) + CCn1c(-c2cc(N3CCN(C)CC3)cnc2C(C)OC)c2c3cc(ccc31)-c1csc(n1)CC(NC(=O)C1CC1C)C(=O)N1CCCC(N1)C(=O)OCC(C)(C)C2	active
CC(=O)OC12COC1CC(O)C1(C)C(=O)C(O)C3=C(C)C(OC(=O)C(O)C(NC(=O)OC(C)(C)C)c4ccccc4)CC(O)(C(OC(=O)c4ccccc4)C21)C3(C)C (stereo unspecified) + CCn1c(-c2cccnc2C(C)OC)c2c3cc(ccc31)N1CCOC(CC(NC(=O)C(C(C)C)N(C)C(=O)C3(F)CCN(C(=O)C#CC(C)(C)N(C)C)CC3)C(=O)N3CCCC(N3)C(=O)OCC(C)(C)C2)C1	inactive
CC(Nc1ccc2c(c1)OCCn1cc(N3C(=O)OCC3C(F)F)nc1-2)C(N)=O (stereo unspecified) + CCn1c(-c2cccnc2C(C)OC)c2c3cc(ccc31)N1CCOC(CC(NC(=O)C(C(C)C)N(C)C(=O)C3(F)CCN(C(=O)C#CC(C)(C)N(C)C)CC3)C(=O)N3CCCC(N3)C(=O)OCC(C)(C)C2)C1	inactive
C[C@@H](NC(=O)c1ncnc(N)c1Cl)c1ncc(C(=O)Nc2cc(C(F)(F)F)c(Cl)cn2)s1 + CCn1c(-c2cccnc2C(C)OC)c2c3cc(ccc31)N1CCOC(CC(NC(=O)C(C(C)C)N(C)C(=O)C3(F)CCN(C(=O)C#CC(C)(C)N(C)C)CC3)C(=O)N3CCCC(N3)C(=O)OCC(C)(C)C2)C1	inactive
CC(=O)OC12COC1CC(O)C1(C)C(=O)C(O)C3=C(C)C(OC(=O)C(O)C(NC(=O)OC(C)(C)C)c4ccccc4)CC(O)(C(OC(=O)c4ccccc4)C21)C3(C)C (stereo unspecified) + CCn1c(-c2cc(N3CCN(C)CC3)cnc2C(C)OC)c2c3cc(ccc31)-c1csc(n1)CC(NC(=O)C1CC1C)C(=O)N1CCCC(N1)C(=O)OCC(C)(C)C2	inactive
CC(C)NCC(C(=O)N1CCN(c2ncnc3c2C(C)CC3O)CC1)c1ccc(Cl)cc1 (stereo unspecified) + CCn1c(-c2cccnc2C(C)OC)c2c3cc(ccc31)N1CCOC(CC(NC(=O)C(C(C)C)N(C)C(=O)C3(F)CCN(C(=O)C#CC(C)(C)N(C)C)CC3)C(=O)N3CCCC(N3)C(=O)OCC(C)(C)C2)C1	inactive

# input for lookup
// outcome(item) with item = CC(Nc1ccc2c(c1)OCCn1cc(N3C(=O)OCC3C(F)F)nc1-2)C(N)=O (stereo unspecified) + CCn1c(-c2cc(N3CCN(C)CC3)cnc2C(C)OC)c2c3cc(ccc31)-c1csc(n1)CC(NC(=O)C1CC1C)C(=O)N1CCCC(N1)C(=O)OCC(C)(C)C2
inactive
